assay.name: HepG2 cell viability effects, profiling panel, calcein-AM fluorescence, 48 h, basal (AID 1164); also: test concentration not given here
condition: higher = more signal
Is z-score at least -0.2? Then 1. If not, -1.

# example entries with known answers
1. COC(=O)[C@]1(CO)N=C(c2ccc(OCCCO)cc2)O[C@@H]1c1ccccc1CN=[N+]=[N-]; 1
2. COCCCNC(=O)[C@@H]1c2ccccc2C(=O)N(Cc2cc(C(F)(F)F)cc(C(F)(F)F)c2)[C@H]1c1ccc(CO)cc1; 1
3. C=C(COC)/C(=C/C[C@@H](OC(C)=O)c1ccccc1OCCO)c1cc(C(=O)OC)ccc1OC; 1
4. CC(=O)c1ccc(C(O)C2C=CC3C(=O)NC(=O)C3N2Nc2ccc(Cl)cc2Cl)cc1 (stereo not drawn); -1
5. [N-]=[N+]=NCc1ccccc1C[C@]1(C(=O)NCc2ccccc2)N=C(c2ccc(OCCCO)cc2)O[C@H]1c1ccccc1CN=[N+]=[N-]; -1

Q: Reported z-score at or above -0.2? C=CCC(OC(C)=O)[C@@H]1[C@@H](N(Cc2ccc(-c3cccc(C(F)(F)F)c3)o2)C(=O)c2cccc3ccccc23)c2cc(OCCCO)ccc2N1C(=O)c1ccc2ccccc2c1 (stereo partly drawn)
A: 1

Q: Check if z-score >= -0.2 (inclusive). Item: N#Cc1ccc(C(O)C2C=CC3C(=O)N(c4ccccc4)C(=O)C3N2Nc2ccc([N+](=O)[O-])cc2)cc1 (stereo not drawn)
A: 1

Q: Hi, just wondering whether NC(=O)NCC#Cc1ccc2c(c1)[C@]1(C(=O)N2)[C@H](C(=O)N2CCCCCCC2)[C@H]2C(=O)O[C@H](c3ccccc3)[C@H](c3ccccc3)N2[C@@H]1c1ccc(O)cc1 shows z-score of -0.2 or higher.
A: 1

Q: Check this compound for z-score at or above -0.2: C=C(CCCC)/C(=C/C[C@H](OC(C)=O)c1cccc(OCCO)c1)c1cc(C(=O)OC)ccc1OC
A: 1

###

assay.name: COS7 lysate on small-molecule microarray, probe aHis, 635 nm (AID 1123);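 also: z-score combines 667nm fluorescence intensity with signal-to-noise per printed compound spot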
condition: COS7 cell lysate, fluorescence, higher = more signal
# cutoff 2 applies to composite z-score; >= gives T, < gives F

For orientation, consider the following solved cases.
1. COC(=O)[C@@]1(Cc2ccc(F)cc2)[C@H]2c3cc(C(=O)N(C)C)n(CCN4CCOCC4)c3C[C@H]2CN1C(=O)c1ccccc1; T
2. CCCC[C@H]1OB(O)C[C@H]2C1=C(C)C[C@H]1C(=O)C=CC(=O)[C@H]12; F
3. COCCOC(=O)N1C(=O)[C@@]2(c3cc(C#CCC(C(=O)OC)C(=O)OC)ccc31)[C@H](C(N)=O)[C@H]1C(=O)O[C@H](c3ccccc3)[C@H](c3ccccc3)N1[C@@H]2c1ccc(OCCO)cc1; F
4. CC(C)C(=C=CC[C@@H](O)c1ccccc1OCCO)C[C@@H](O)c1cc(Cl)cc(Cl)c1O; F
5. CC(C)C(=C=CC[C@@H](O)c1ccc(OCCO)cc1)CCO; F
6. COC(=O)[C@@]1(CCC(=O)OC(C)(C)C)N=C(c2ccc(OCCCO)cc2)O[C@H]1c1ccccc1CN=[N+]=[N-]; F
7. CN(C)C(=O)[C@@]1(CCS(=O)(=O)c2ccccc2)N=C(c2ccc(OCCCO)cc2)O[C@H]1c1ccccc1N=[N+]=[N-]; T

Q: Does [N-]=[N+]=NCc1ccccc1[C@@H]1OC(c2ccc(OCCCO)cc2)=N[C@]1(Cc1ccccc1)C(=O)NCc1ccccc1 have a reported composite z-score of at least 2?
A: T
